target: ZC3HC1 (UniProt Q86WB0); test: log2 fold change, soluble protein after heating vs DMSO (PISA); higher = thermal stabilisation; K562 cells, 10 uM, 30 min; active = over 0.2 and 3.5 SD of the protein, either way, in both replicates (recomputed)
Sequence (Q86WB0 whole entry, looked up): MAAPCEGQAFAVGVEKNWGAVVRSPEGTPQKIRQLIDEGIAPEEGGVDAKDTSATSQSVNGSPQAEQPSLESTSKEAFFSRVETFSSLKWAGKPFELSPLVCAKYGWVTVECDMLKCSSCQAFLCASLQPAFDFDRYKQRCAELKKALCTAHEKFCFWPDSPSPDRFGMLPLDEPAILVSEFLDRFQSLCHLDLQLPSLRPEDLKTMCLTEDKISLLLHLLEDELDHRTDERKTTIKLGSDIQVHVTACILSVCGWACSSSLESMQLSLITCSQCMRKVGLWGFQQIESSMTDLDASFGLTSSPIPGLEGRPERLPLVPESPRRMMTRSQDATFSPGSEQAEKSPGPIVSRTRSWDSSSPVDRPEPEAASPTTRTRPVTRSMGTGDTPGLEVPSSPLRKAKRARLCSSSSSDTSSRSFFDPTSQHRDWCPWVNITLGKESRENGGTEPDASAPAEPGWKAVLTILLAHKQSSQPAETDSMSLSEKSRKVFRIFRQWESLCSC
Targets with a hit are over-represented here; the source holds about 7,900 in all. About 0.6% of all pairs of compound and target were hits.
Returns: one label drawn from active, inactive

Exercise: Test call for this compound, please: CNc1nc(-c2ccc3c(N)n[nH]c3c2)cc(N2C[C@@H](C(=O)NC3CCCCC3)CC[C@H]2C)n1
Solution: inactive

Exercise: Test call for this compound, please: CCCS(=O)(=O)Nc1ccc(F)c(C(=O)c2c[nH]c3ncc(Cl)cc23)c1F
Solution: inactive

Exercise: Test call for this compound, please: NC1(Cc2ccc(Cl)cc2)CCN(c2ncnc3[nH]ccc23)CC1
Solution: inactive

Reference source: the supplement of paper PMC10849652
